Assign GI50 to each entry below.
# System: RXF 393 renal
# PROTOCOL_TEXT: NCI tumour cell line growth inhibition, 48 h

Record summary for CCN(CC)CCOC(=O)Cc1cccc2c(=O)cc(-c3ccccc3)oc12 : reported GI50 = 52.6 µM

Record summary for CCOc1nccc2c1nc(-c1nonc1N)n2CC : reported GI50 = > 25 µM

Record summary for Nc1nccc2c1ncn2C1OC(CO)C(O)C1O (centres undefined) : reported GI50 = 48.5 µM

Record summary for CC1=CCC[C@H]2[C@](C)(CC3=CC(=O)C(Sc4ccccc4)=CC3=O)[C@@H](C)CC[C@]12C : reported GI50 = 16.1 µM

Record summary for NCCCN1CCN(CCCNc2nc3ccccc3c3[nH]c4ccccc4c23)CC1 : reported GI50 = 0.429 µM

Record summary for COc1cccc(C2SC(C)C(=O)N2CCc2cccs2)c1 (centres undefined) : reported GI50 = 4.26 µM

Record summary for COc1ccc(-c2ccc(-c3ccc(C(=N)N)cn3)o2)cc1Cl : reported GI50 = 1.61 µM

Record summary for CC(C)C[C@H](NC(=O)[C@H](Cc1cccc2ccccc12)NS(=O)(=O)c1cccc2cccnc12)B(O)O : reported GI50 = 0.00919 µM

Record summary for C=C1C(OC/C=C/COC2O[C@@H]3O[C@@]4(C)CC[C@H]5[C@H](C)CC[C@@H](C2=C)[C@@]35OO4)O[C@@H]2O[C@@]3(C)CC[C@H]4[C@H](C)CC[C@@H]1[C@@]24OO3 (some centres undefined) : reported GI50 = 0.166 µM

###

Assign TGI to each entry below.
# Test system: NCI-H460 lung
# PROTOCOL_TEXT: NCI tumour cell line growth inhibition, 48 h

Record summary for NC(CC(O)(c1ccccc1)c1ccccc1)c1ccccc1S (stereo not given) : reported TGI = 38.3 µM

Record summary for COc1cccc(CCC(=O)c2cc3c(N)c(C(=O)Nc4cccc(Cl)c4C)sc3nc2C)c1 : reported TGI = > 75.2 µM

Record summary for COc1ccc(-c2ccc(-c3ccc(C(=N)N)cn3)o2)cc1Cl : reported TGI = 3.63 µM

Record summary for CCc1ccc2nccc(NCCCN(C)C)c2c1[N+](=O)[O-] : reported TGI = > 100 µM

Record summary for COC(=O)c1ccccc1C1=C([N+](=O)[O-])C(c2ccccc2)C(C#N)=C(N)O1 (stereo not given) : reported TGI = > 100 µM

Record summary for COC12C=CC(C=C1C#N)CC2 (stereo not given) (tested in a mixture with another compound) : reported TGI = > 100 µM

Record summary for COc1cc(OC2OC(COC(=O)c3cc(O)c(O)c(O)c3)C(O)C(O)C2O)ccc1O (stereo not given) : reported TGI = > 100 µM

Record summary for O=C(Nc1ccc(Br)cc1)C(=O)C(C(=O)c1ccccc1F)C1OC(=O)c2ccccc21 (stereo not given) : reported TGI = > 100 µM

Record summary for COC(=O)NC(Cc1ccccc1)NC(C)=O (stereo not given) : reported TGI = > 100 µM

Record summary for Cc1cnccc1N=Nc1ccc(N(C)C)cc1 : reported TGI = > 100 µM

###

# Test system: A549 NSCLC
# PROTOCOL_TEXT: NCI tumour cell line growth inhibition, 48 h; in the data active = GI50 below about 0.43 µM; inactive = the rest
Entry note: the call must match one of y for active, n for inactive

Problem: Tell me the recorded outcome of this test for COc1ccc(Cn2cc3c(c2-c2cc(OC)c(OC)c(OC)c2)CCc2cnoc2-3)cc1N .
Solution: y

Problem: Tell me the recorded outcome of this test for Nc1ccc(C(OC(=O)c2cc3ccccc3c(Cc3c(O)c(C(=O)OC(c4ccc(N)cc4)(c4ccc(N)cc4)c4ccc(N)cc4)cc4ccccc34)c2O)(c2ccc(N)cc2)c2ccc(N)cc2)cc1 .
Solution: n

Problem: Tell me the recorded outcome of this test for C[C@@H](COCCC(=O)N1CCN(c2ncc(C(F)(F)F)cn2)CC1)Nc1cn[nH]c(=O)c1C(F)(F)F .
Solution: n

Problem: Tell me the recorded outcome of this test for CCC1(NC(=O)c2cc(F)c(F)c(F)c2F)C(=O)NC(=O)N(C(C)C)C1=O (configuration not stated) .
Solution: n

Problem: Tell me the recorded outcome of this test for COc1cc2c3c(n(CCCBr)c(=O)c2cc1OC)-c1ccc(F)cc1C3=O .
Solution: n

Problem: Tell me the recorded outcome of this test for COC(=O)[C@H](C)NC(=O)[C@@H](OC)[C@@H]1Cc2cc3cc(OC4CC(OC5CC(O)C(O)C(C)O5)C(O)C(C)O4)c(C)c(O)c3c(O)c2C(=O)[C@H]1OC1CC(OC2CC(OC3CC(C)(O)C(O)C(C)O3)C(O)C(C)O2)C(O)C(C)O1 (some centres not stated) .
Solution: y

Problem: Tell me the recorded outcome of this test for Cc1cc(C)c(S(=O)(=O)N(CCc2cccc(Br)c2)Cc2ccc(-c3cccc(S(C)(=O)=O)c3)cc2)c(C)c1 .
Solution: n

###

# System: HOP-62 NSCLC
# PROTOCOL_TEXT: NCI tumour cell line growth inhibition, 48 h
RECORDED_ENDPOINT: TGI (µM)
Write the value in µM as a bare number.

Record summary for O=S(=O)(NC1=NCCN1C(=S)SN1CCn2c1nsc2=S)c1ccccc1Cl : reported TGI = 33.9

Record summary for CC(=O)OC(C)c1cc2c(s1)C(=O)c1c(C(C)OC(C)=O)csc1C2=O (stereo not given) : reported TGI = 2.5

###

# Tested on: SNB-19 CNS
# PROTOCOL_TEXT: NCI tumour cell line growth inhibition, 48 h
RECORDED_ENDPOINT: GI50

Record summary for O=c1oc2c3ccc4cnccc4c3[nH]c2c2ccccc12 : reported GI50 = 18.5 µM

Record summary for CN(C)CCCCn1ccc2c1C(=O)c1c(c(O)c3ccccc3c1O)C2=O : reported GI50 = 14.6 µM

Record summary for C=C(CNC(=O)c1ccccc1)c1ccc(C(=O)Nc2ccccc2N)cc1 : reported GI50 = 80.2 µM

Record summary for CCN(CC)CCOC(=O)Cc1cccc2c(=O)cc(-c3ccccc3)oc12 : reported GI50 = 112 µM

###

Assign TGI to each entry below.
# System: M14 melanoma
# PROTOCOL_TEXT: NCI tumour cell line growth inhibition, 48 h
Write the value in µM as a bare number.

Item CCN(CC)CCOc1ccc(C(O)(Cc2ccc(OC)cc2)c2ccccc2)cc1 (stereo unspecified) was tested on M14 melanoma; the reported TGI is 27.8

Item O=c1oc2c3ccc4cnccc4c3[nH]c2c2ccccc12 was tested on M14 melanoma; the reported TGI is 26.6

Item C=C1C(=O)OC2/C=C(\CO)CC/C=C(\CO)CC(OC(=O)C(C)C)C12 (stereo unspecified) was tested on M14 melanoma; the reported TGI is 19.9

###

# System: MALME-3M melanoma
# PROTOCOL_TEXT: NCI tumour cell line growth inhibition, 48 h
Assign TGI to each entry below.

Record summary for CS(=O)(=O)N(CCC#N)c1ccc(C=O)cc1 : reported TGI = > 100 µM

Record summary for CCN(CC)CCn1c2ccc(OC)cc2c2sc3cc(OC)ccc3c(=O)c21 : reported TGI = 3.18 µM

Record summary for FC(F)(F)c1cccc2c(SCCc3n[nH]c(=S)o3)ccnc12 : reported TGI = > 100 µM

Record summary for CN(C)CC1CCC/C(=C\c2ccc(OC(=O)/C=C/c3ccc(Cl)c(Cl)c3)cc2)C1=O (stereo unspecified) : reported TGI = 25.4 µM

Record summary for COc1ccc(N=C2C(=Nc3ccc(OC)cc3)N(c3ccc(N(C)C)cc3)C(=S)N2c2ccc(OC)cc2)cc1 : reported TGI = > 100 µM

Record summary for O=[N+]([O-])c1ccc(O)c(/C=N/c2nc(-c3ccccc3)cs2)c1 : reported TGI = 74.6 µM

Record summary for O=C(C(Cl)=C(N1CCCCC1)N1CCCCC1)C(Cl)Cl : reported TGI = > 100 µM

Record summary for COc1cc2c(cc1OC)[C@@](C)(C(O)C(O)C(C)(C)O)NCC2 (stereo partly specified) : reported TGI = > 100 µM

Record summary for NC(CC(O)(c1ccccc1)c1ccccc1)c1ccccc1S (stereo unspecified) : reported TGI = 54.8 µM

Record summary for O=C(O)CCc1ccc2c(c1)CC1(Cc3ccccc3C1)C2 : reported TGI = > 100 µM

Record summary for CC(=O)Oc1cc(OC(C)=O)c2c(C)cc(=O)oc2c1 : reported TGI = > 100 µM

###

Assign GI50 to each entry below.
# Test system: SK-MEL-5 melanoma
# PROTOCOL_TEXT: NCI tumour cell line growth inhibition, 48 h

Record summary for O=C(CCSc1ccnc2c(C(F)(F)F)cccc12)N/N=C/c1cc(Cl)c(Cl)cc1Cl : reported GI50 = 19.3 µM

Record summary for COc1cc(NC(=O)NCc2ccco2)ccc1-c1ccc(NC(=O)NCc2ccco2)cc1OC : reported GI50 = 0.93 µM

Record summary for Cc1cc(C)c(S(=O)(=O)N(CCc2cccc(Br)c2)Cc2ccc(-c3cccc(S(C)(=O)=O)c3)cc2)c(C)c1 : reported GI50 = > 100 µM

Record summary for O=S(=O)(NC1=NCCN1C(=S)SN1CCn2c1nsc2=S)c1ccccc1Cl : reported GI50 = 15.8 µM

Record summary for NCCCN1CCN(CCCNc2nc3ccccc3c3[nH]c4ccccc4c23)CC1 : reported GI50 = 1.14 µM

Origin of measurements: PubChem BioAssay (NCI)
